- Tested on: HCT116 (human colorectal cancer cell line)
- assay-text: MTT anti-proliferative assay, HCT116
- Format: cell-based
- particulars: Homo sapiens, HCT-116, 48 h incubation, means ± SD, n = 3
pIC50: −log10 of the molar value.

[
  {
    "compound": "CC1(C)CC[C@]2(C(=O)OCc3nnc(-c4ccc([N+](=O)[O-])cc4)o3)[C@H](O)C[C@]3(C)C(=CC[C@@H]4[C@@]5(C)CC[C@H](O)[C@@](C)(C=O)[C@@H]5CC[C@]43C)[C@@H]2C1 [Compound B6]",
    "censor-symbol": "=",
    "pIC50": 5.44
  },
  {
    "compound": "COc1ccc(-n2cc(COC(=O)[C@]34CCC(C)(C)C[C@H]3C3=CC[C@@H]5[C@@]6(C)CC[C@H](O)[C@@](C)(C=O)[C@@H]6CC[C@@]5(C)[C@]3(C)C[C@H]4O)nn2)cc1OC [Compound A7]",
    "censor-symbol": "<",
    "pIC50": 5.00
  }
]

---

- Tested on: MCF-7 (human breast cancer cell line)
- assay-text: MTT anti-proliferative assay, MCF-7
- Assay type: cell-based
- particulars: Homo sapiens, MCF7, 48 h incubation, means ± SD, n = 3
Entries and their IC50
observable: IC50

[
  {
    "smiles-notation": "CC1(C)CC[C@]2(C(=O)OCc3cn(-c4ccc(F)cc4)nn3)[C@H](O)C[C@]3(C)C(=CC[C@@H]4[C@@]5(C)CC[C@H](O)[C@@](C)(C=O)[C@@H]5CC[C@]43C)[C@@H]2C1",
    "target-desc": "MCF-7 (human breast cancer cell line)",
    "observed-value": "> 10 µM"
  },
  {
    "smiles-notation": "CC1(C)CC[C@]2(C(=O)OCCn3ncn(-c4ccccc4)c3=O)[C@H](O)C[C@]3(C)C(=CC[C@@H]4[C@@]5(C)CC[C@H](O)[C@@](C)(C=O)[C@@H]5CC[C@]43C)[C@@H]2C1",
    "target-desc": "MCF-7 (human breast cancer cell line)",
    "observed-value": "> 10 µM"
  },
  {
    "smiles-notation": "CC1(C)CC[C@]2(C(=O)OCc3nnc(-c4ccc([N+](=O)[O-])cc4)o3)[C@H](O)C[C@]3(C)C(=CC[C@@H]4[C@@]5(C)CC[C@H](O)[C@@](C)(C=O)[C@@H]5CC[C@]43C)[C@@H]2C1",
    "target-desc": "MCF-7 (human breast cancer cell line)",
    "observed-value": "> 10 µM"
  }
]

---

- Tested on: MCF-7 (human breast cancer cell line)
- assay-text: MTT anti-proliferative assay, MCF-7
- Format: cell-based
- particulars: Homo sapiens, MCF7, 48 h incubation, means ± SD, n = 3
Entries and their IC50

[
  {
    "smiles-notation": "CC1(C)CC[C@]2(C(=O)OCCn3ncn(-c4ccc(Cl)c(Cl)c4)c3=O)[C@H](O)C[C@]3(C)C(=CC[C@@H]4[C@@]5(C)CC[C@H](O)[C@@](C)(C=O)[C@@H]5CC[C@]43C)[C@@H]2C1",
    "IC50": "> 10 µM"
  },
  {
    "smiles-notation": "CC1(C)CC[C@]2(C(=O)OCc3cn(-c4ccc(Cl)c(Cl)c4)nn3)[C@H](O)C[C@]3(C)C(=CC[C@@H]4[C@@]5(C)CC[C@H](O)[C@@](C)(C=O)[C@@H]5CC[C@]43C)[C@@H]2C1",
    "IC50": "> 10 µM"
  },
  {
    "smiles-notation": "CC1(C)CC[C@]2(C(=O)OCc3cc(-c4ccccc4)no3)[C@H](O)C[C@]3(C)C(=CC[C@@H]4[C@@]5(C)CC[C@H](O)[C@@](C)(C=O)[C@@H]5CC[C@]43C)[C@@H]2C1",
    "IC50": "> 10 µM"
  },
  {
    "smiles-notation": "COc1ccc(-n2cc(COC(=O)[C@]34CCC(C)(C)C[C@H]3C3=CC[C@@H]5[C@@]6(C)CC[C@H](O)[C@@](C)(C=O)[C@@H]6CC[C@@]5(C)[C@]3(C)C[C@H]4O)nn2)cc1",
    "IC50": "> 10 µM"
  },
  {
    "smiles-notation": "CC1(C)CC[C@]2(C(=O)OCCn3ncn(-c4ccc(Cl)cc4)c3=O)[C@H](O)C[C@]3(C)C(=CC[C@@H]4[C@@]5(C)CC[C@H](O)[C@@](C)(C=O)[C@@H]5CC[C@]43C)[C@@H]2C1",
    "IC50": "> 10 µM"
  },
  {
    "smiles-notation": "CC1(C)CC[C@]2(C(=O)OCCn3nnnc3-c3ccccc3)[C@H](O)C[C@]3(C)C(=CC[C@@H]4[C@@]5(C)CC[C@H](O)[C@@](C)(C=O)[C@@H]5CC[C@]43C)[C@@H]2C1",
    "IC50": "7.59 µM"
  },
  {
    "smiles-notation": "COc1cc(-n2cnn(CCOC(=O)[C@]34CCC(C)(C)C[C@H]3C3=CC[C@@H]5[C@@]6(C)CC[C@H](O)[C@@](C)(C=O)[C@@H]6CC[C@@]5(C)[C@]3(C)C[C@H]4O)c2=O)cc(OC)c1OC",
    "IC50": "> 10 µM"
  },
  {
    "smiles-notation": "CC1(C)CC[C@]2(C(=O)OCc3cn(-c4ccc([N+](=O)[O-])cc4)nn3)[C@H](O)C[C@]3(C)C(=CC[C@@H]4[C@@]5(C)CC[C@H](O)[C@@](C)(C=O)[C@@H]5CC[C@]43C)[C@@H]2C1",
    "IC50": "> 10 µM"
  },
  {
    "smiles-notation": "COc1cc(-c2nnc(COC(=O)[C@]34CCC(C)(C)C[C@H]3C3=CC[C@@H]5[C@@]6(C)CC[C@H](O)[C@@](C)(C=O)[C@@H]6CC[C@@]5(C)[C@]3(C)C[C@H]4O)o2)cc(OC)c1OC",
    "IC50": "> 10 µM"
  },
  {
    "smiles-notation": "Cc1ccc(-n2cc(COC(=O)[C@]34CCC(C)(C)C[C@H]3C3=CC[C@@H]5[C@@]6(C)CC[C@H](O)[C@@](C)(C=O)[C@@H]6CC[C@@]5(C)[C@]3(C)C[C@H]4O)nn2)cc1",
    "IC50": "> 10 µM"
  },
  {
    "smiles-notation": "COc1ccc(-n2cnn(CCOC(=O)[C@]34CCC(C)(C)C[C@H]3C3=CC[C@@H]5[C@@]6(C)CC[C@H](O)[C@@](C)(C=O)[C@@H]6CC[C@@]5(C)[C@]3(C)C[C@H]4O)c2=O)cc1",
    "IC50": "> 10 µM"
  },
  {
    "smiles-notation": "CC1(C)CC[C@]2(C(=O)OCc3nnc(-c4ccc(F)cc4)o3)[C@H](O)C[C@]3(C)C(=CC[C@@H]4[C@@]5(C)CC[C@H](O)[C@@](C)(C=O)[C@@H]5CC[C@]43C)[C@@H]2C1",
    "IC50": "3.99 µM"
  },
  {
    "smiles-notation": "CC1(C)CC[C@]2(C(=O)OCc3nnc(-c4ccc(Cl)cc4)o3)[C@H](O)C[C@]3(C)C(=CC[C@@H]4[C@@]5(C)CC[C@H](O)[C@@](C)(C=O)[C@@H]5CC[C@]43C)[C@@H]2C1",
    "IC50": "> 10 µM"
  }
]
